Molecular target: T1, human galanin receptor 2 (hGalR2) (human, UniProt O43603 1-387)
T1 sequence (looked up): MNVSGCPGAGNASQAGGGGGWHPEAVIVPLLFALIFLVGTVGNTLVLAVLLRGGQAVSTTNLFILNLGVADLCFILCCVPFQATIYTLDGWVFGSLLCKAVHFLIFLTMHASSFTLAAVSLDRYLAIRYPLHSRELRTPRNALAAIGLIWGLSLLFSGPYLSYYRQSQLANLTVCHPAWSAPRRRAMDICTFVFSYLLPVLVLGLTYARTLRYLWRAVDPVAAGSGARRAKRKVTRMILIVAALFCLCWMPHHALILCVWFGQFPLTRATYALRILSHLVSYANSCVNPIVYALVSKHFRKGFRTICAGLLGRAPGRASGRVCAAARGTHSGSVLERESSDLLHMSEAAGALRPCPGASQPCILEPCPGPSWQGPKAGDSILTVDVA
Experiment: cell-based or functional assay
Positions of bridges follow the written chain, without caps; N, C: chain ends. No end group written: not given here.
# Emax, receptor activation (SRE-Luc assay) listing for each entry below

Reference set, count: 4
| binder | result |
| --- | --- |
| CWTPQAMLYLKGCQ-NH2 (disulfide 1-13; N-terminus assumed; SMILES CSCC[C@@H]1NC(=O)[C@H](C)NC(=O)[C@H](CCC(N)=O)NC(=O)[C@@H]2CCCN2C(=O)[C@H]([C@@H](C)O)NC(=O)[C@H](Cc2c[nH]c3ccccc23)NC(=O)[C@@H](N)CSSC[C@@H](C(=O)N[C@@H](CCC(N)=O)C(N)=O)NC(=O)CNC(=O)[C@H](CCCCN)NC(=O)[C@H](CC(C)C)NC(=O)[C@H](Cc2ccc(O)cc2)NC(=O)[C@H](CC(C)C)NC1=O) [LH101] | 1.09 relative to hSPX Emax |
| GWTLNSAGYLLGPHAV-NH2 [human galanin (1-16), hGAL (1-16)] | 1.02 relative to hSPX Emax |
| NWTCQAMLYLKGCQ-NH2 (disulfide 4-13; N-terminus assumed; SMILES CSCC[C@@H]1NC(=O)[C@H](C)NC(=O)[C@H](CCC(N)=O)NC(=O)[C@@H](NC(=O)[C@@H](NC(=O)[C@H](Cc2c[nH]c3ccccc23)NC(=O)[C@@H](N)CC(N)=O)[C@@H](C)O)CSSC[C@@H](C(=O)N[C@@H](CCC(N)=O)C(N)=O)NC(=O)CNC(=O)[C@H](CCCCN)NC(=O)[C@H](CC(C)C)NC(=O)[C@H](Cc2ccc(O)cc2)NC(=O)[C@H](CC(C)C)NC1=O) [LH102] | 1.08 relative to hSPX Emax |
| NWTCQAMLYLKGAQ-NH2 [hSPX (C4)] | 0.98 relative to hSPX Emax |

--- query ---
May I ask what Emax, receptor activation (SRE-Luc assay) has been recorded for CWTPQAMLYLKGAQ-NH2 [hSPX (C1)] ? 1.05 relative to hSPX Emax
